Molecular target: human mPGES-1 (Homo sapiens, UniProt O14684)
Construct: made in house; host or cells: COS-1 cells (transient transfection; microsomal fraction used as enzyme)
Sequence (O14684 whole entry): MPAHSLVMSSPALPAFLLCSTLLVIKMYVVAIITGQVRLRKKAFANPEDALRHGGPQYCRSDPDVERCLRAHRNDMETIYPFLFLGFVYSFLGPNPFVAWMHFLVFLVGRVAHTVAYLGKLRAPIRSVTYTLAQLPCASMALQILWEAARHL
Experiment: Test for mPGES-1 inhibitory activity (microsomal enzyme, PGE2 EIA)
Type: biochemical
Settings: microsomes of COS-1 cells transfected with human mPGES-1 cDNA; PGH2 1 μM; 4° C., 4 minutes; PGE2 by EIA; read-out: h mPGES1 IC50
pIC50: −log10 of the molar value.
PARAMETER_MEASURED: pIC50

1. O=c1cc(C(F)F)nc(-c2c(C(F)(F)F)ccc(CNC(=O)[C@H]3C[C@H](OCc4ccc(Cl)cc4)C3)c2F)[nH]1
> 9.00
2. O=c1cc(C(F)(F)F)nc(-c2c(C(F)(F)F)ccc(CNC(=O)[C@H]3C[C@H](OCc4cc(Cl)ccc4F)C3)c2F)[nH]1
> 9.00
3. CCc1cc(=O)[nH]c(-c2c(C(F)(F)F)ccc(CNC(=O)[C@H]3C[C@H](OCc4ccc(Cl)cc4)C3)c2F)n1
8.43

Q: Form field: reported pIC50 of CCc1nc(-c2c(C(F)(F)F)ccc(CNC(=O)[C@H]3C[C@H](OCc4ccc(Cl)cc4F)C3)c2F)[nH]c(=O)c1F
A: > 9.00

Q: What would you report for O=C(Cc1ccc(C(F)(F)F)cc1)NCc1ccc(C(F)(F)F)c(-c2nc(C(F)(F)F)cc(=O)[nH]2)c1F ?
A: 8.82

Q: What would you report for Cc1cc(=O)[nH]c(-c2c(C(F)(F)F)ccc(CNC(=O)[C@H]3C[C@H](OCc4ccc(C(F)(F)F)cc4)C3)c2F)n1 ?
A: 8.00

Q: What would you report for Cc1nc(-c2c(C(F)(F)F)ccc(CNC(=O)[C@H]3C[C@H](OCc4cc(F)cc(F)c4)C3)c2F)[nH]c(=O)c1F ?
A: 7.85

Q: What would you report for O=c1cc(C(F)(F)F)nc(-c2c(C(F)(F)F)ccc(CNC(=O)[C@H]3C[C@H](OCc4cccc(F)c4)C3)c2F)[nH]1 ?
A: > 9.00

Q: What would you report for O=c1cc(C(F)F)nc(-c2c(C(F)(F)F)ccc(CNC(=O)[C@H]3C[C@H](OCc4ccc(F)c(Cl)c4)C3)c2F)[nH]1 ?
A: > 9.00

Q: What would you report for O=c1cc(C(F)F)nc(-c2c(C(F)(F)F)ccc(CNC(=O)[C@H]3C[C@H](OCc4cc(Cl)ccc4F)C3)c2F)[nH]1 ?
A: > 9.00

Q: What would you report for CCc1cc(=O)[nH]c(-c2c(C(F)(F)F)ccc(CNC(=O)[C@H]3C[C@H](OCc4ccc(F)cc4F)C3)c2F)n1 ?
A: > 9.00

Q: What would you report for CCc1cc(=O)[nH]c(-c2c(C(F)(F)F)ccc(CNC(=O)[C@H]3C[C@H](OCc4cccc(Cl)c4F)C3)c2F)n1 ?
A: 8.06

Q: What would you report for O=c1cc(C(F)F)nc(-c2c(C(F)(F)F)ccc(CNC(=O)[C@H]3C[C@H](OCc4ccc(F)c(F)c4)C3)c2F)[nH]1 ?
A: > 9.00

Q: What would you report for O=c1cc(C(F)(F)F)nc(-c2c(C(F)(F)F)ccc(CNS(=O)(=O)c3ccccc3C(F)(F)F)c2F)[nH]1 ?
A: 7.48

Q: What would you report for O=c1cc(C(F)(F)F)nc(-c2c(C(F)(F)F)ccc(CNC(=O)[C@H]3C[C@H](OCc4cccc(Cl)c4F)C3)c2F)[nH]1 ?
A: > 9.00

Q: What would you report for CCc1cc(=O)[nH]c(-c2c(C(F)(F)F)ccc(CNC(=O)[C@H]3C[C@H](OCc4ccc(Cl)cc4F)C3)c2F)n1 ?
A: > 9.00

Q: What would you report for O=C(NCc1ccc(C(F)(F)F)c(-c2nc(C(F)(F)F)cc(=O)[nH]2)c1F)c1ccccc1C(F)(F)F ?
A: 8.08

Q: What would you report for Cc1nc(-c2c(C(F)(F)F)ccc(CNC(=O)[C@H]3C[C@H](OCc4cccc(F)c4F)C3)c2F)[nH]c(=O)c1F ?
A: > 9.00

Q: What would you report for O=c1cc(C(F)F)nc(-c2c(C(F)(F)F)ccc(CNC(=O)[C@H]3C[C@H](OCc4ccc(F)cc4F)C3)c2F)[nH]1 ?
A: > 9.00

Q: What would you report for CCc1nc(-c2c(C(F)(F)F)ccc(CNC(=O)[C@H]3C[C@H](OCc4cccc(F)c4)C3)c2F)[nH]c(=O)c1F ?
A: > 9.00
